Measured values drawn from paper PMC9500407 for this set.

Tested on: Caco-2 monoculture tubules (chip)
Experiment: In vitro drug absorption study, OrganoPlate chip monoculture tubules, Papp by LC-MS
Settings: OrganoPlate Caco-2 monoculture tubules, day 4, A-B, apical pH 6.5 / basolateral pH 7.4, 10 µM drug in 0.1% DMSO, 2 h, 37°C, constant flow, mean ± SEM, at least three biological replicates
Below, each entry is listed with its recorded Chip Caco-2 Papp (apparent permeability coefficient from A B).
measurement.name: Chip Caco-2 Papp (apparent permeability coefficient from A B)

{"molecule": "NC(=O)N1c2ccccc2C=Cc2ccccc21 [Carbamazepine]", "study.target": "Caco-2 monoculture tubules (chip)", "observed.measurement": "0.00021399 cm/s"}
{"molecule": "CC(C)(C)NCC(O)c1cc(O)cc(O)c1 (stereo not drawn) [Terbutaline]", "study.target": "Caco-2 monoculture tubules (chip)", "observed.measurement": "7.11± 0.43 × 10-6 cm/sec"}
{"molecule": "CN(C)C(=O)C(CCN1CCC(O)(c2ccc(Cl)cc2)CC1)(c1ccccc1)c1ccccc1 [Loperamide]", "study.target": "Caco-2 monoculture tubules (chip)", "observed.measurement": "11.03± 1.62 × 10^-6 cm/sec"}
{"molecule": "CN/C(=N/CCSCc1nc[nH]c1C)NC#N [Cimetidine]", "study.target": "Caco-2 monoculture tubules (chip)", "observed.measurement": "9.79± 3.41 × 10^-6 cm/sec"}
{"molecule": "CC(C)NCC(O)COc1cccc2ccccc12 (stereo not drawn) [Propranolol]", "study.target": "Caco-2 monoculture tubules (chip)", "observed.measurement": "71.42± 5.08 × 10-6 cm/sec"}
{"molecule": "CC(=O)CC(c1ccccc1)c1c(O)c2ccccc2oc1=O (stereo not drawn) [Warfarin]", "study.target": "Caco-2 monoculture tubules (chip)", "observed.measurement": "160.97± 40.49 × 10-6 cm/sec"}
{"molecule": "CC[C@H]1OC(=O)[C@H](C)[C@@H](O[C@H]2C[C@@](C)(OC)[C@@H](O)[C@H](C)O2)[C@H](C)[C@@H](O[C@@H]2O[C@H](C)C[C@H](N(C)C)[C@H]2O)[C@](C)(O)C[C@@H](C)C(=O)[C@H](C)[C@@H](O)[C@]1(C)O [Erythromicin]", "study.target": "Caco-2 monoculture tubules (chip)", "observed.measurement": "1.33e-06 cm/s"}
{"molecule": "CNC(=C[N+](=O)[O-])NCCSCc1ccc(CN(C)C)o1 [Rantidine]", "study.target": "Caco-2 monoculture tubules (chip)", "observed.measurement": "1.80± 0.27 × 10^-6 cm/sec"}
{"molecule": "COCCc1ccc(OCC(O)CNC(C)C)cc1 (stereo not drawn) [Metoprolol]", "study.target": "Caco-2 monoculture tubules (chip)", "observed.measurement": "17.67± 4.98 × 10-6 cm/sec"}

* * *

Recorded Lucifer Yellow leakage (%) Chip Caco-2 by entry
Test system: Caco-2 monoculture tubules (chip)
Assay: Lucifer Yellow leakage after drug exposure, chip monoculture
Conditions: 100 µM LY co-applied, after 2 h of exposure to 10 µM drug

{"compound": "NC(=O)N1c2ccccc2C=Cc2ccccc21 [Carbamazepine]", "Lucifer Yellow leakage (%) Chip Caco-2": 0.02}
{"compound": "CN/C(=N/CCSCc1nc[nH]c1C)NC#N [Cimetidine]", "Lucifer Yellow leakage (%) Chip Caco-2": 0.03}
{"compound": "CC(C)(C)NCC(O)c1cc(O)cc(O)c1 (centres unmarked) [Terbutaline]", "Lucifer Yellow leakage (%) Chip Caco-2": 0.02}
{"compound": "CC(C)NCC(O)COc1cccc2ccccc12 (centres unmarked) [Propranolol]", "Lucifer Yellow leakage (%) Chip Caco-2": 0.03}
{"compound": "COCCc1ccc(OCC(O)CNC(C)C)cc1 (centres unmarked) [Metoprolol]", "Lucifer Yellow leakage (%) Chip Caco-2": 0.02}
{"compound": "CN(C)C(=O)C(CCN1CCC(O)(c2ccc(Cl)cc2)CC1)(c1ccccc1)c1ccccc1 [Loperamide]", "Lucifer Yellow leakage (%) Chip Caco-2": 0.68}
{"compound": "CNC(=C[N+](=O)[O-])NCCSCc1ccc(CN(C)C)o1 [Rantidine]", "Lucifer Yellow leakage (%) Chip Caco-2": 0.02}
{"compound": "CC[C@H]1OC(=O)[C@H](C)[C@@H](O[C@H]2C[C@@](C)(OC)[C@@H](O)[C@H](C)O2)[C@H](C)[C@@H](O[C@@H]2O[C@H](C)C[C@H](N(C)C)[C@H]2O)[C@](C)(O)C[C@@H](C)C(=O)[C@H](C)[C@@H](O)[C@]1(C)O [Erythromicin]", "Lucifer Yellow leakage (%) Chip Caco-2": 0.04}
